// reported kon per item
biological target: T1, recombinant Fc-TrkB antigen (human) (human, UniProt Q16620 32-430, limits assumed); test: SPR (Biacore S51), Fc-hTrkB amine-coupled to CM-5 chip, IgG in flow, global 1:1 Langmuir fit
T1 construct: Biotinylated for the ForteBio assays; also called Fc-hTrkB; human Fc-TrkB; not shown: Fc part
Lab book: enter the figure in M⁻¹ s⁻¹, no units written.

>  <BINDER>
NVP-LFD253 (antibody, human IgG1, V domains shown, IgG with human IgG1 constant region and human kappa constant region, from transiently transfected CHO cells; also called TR127 Vh & TR137 Vk) VH: QVQLVQSGAEVKKPGASVKVSCKASGYTFTAYDMHWVRQAPGQGLEWMGWIDPNSGGTRYAQKFQGRVTMTRDTSISTAYMELSRLTSDDTAVYYCTGVTTWFAYWGQGTLVTVSS VL: DIVMTQTPLSLPVTLGQPASISCRSSQSLVHSNGNTYLSWLQQRPGQPPRLLIYKISNRFSGVPDRFSGSGAGTDFTLKISRVEAEDVGVYYCMQGTHEPYTFGQGKLEIK

>  <kon / M⁻¹ s⁻¹>
197000

$$$$

// switching to the query binder
Request: Give the measured kon of NVP-LFC327 (antibody, human IgG1, V domains shown, IgG with human IgG1 constant region and human kappa constant region, from transiently transfected CHO cells; also called TR127 Vh & TR129 Vk) VH: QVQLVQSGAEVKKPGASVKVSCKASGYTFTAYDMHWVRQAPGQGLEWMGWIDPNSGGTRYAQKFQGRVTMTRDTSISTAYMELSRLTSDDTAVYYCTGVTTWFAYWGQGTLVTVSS VL: DIVMTQSPLSLPVTLGQPASISCRSSQSLVHSNGNTYLNWYQQKPGQPPRLLIYKISNRFSGVPDRFSGSGAGTDFTLKISRVEAEDVGVYYCMQGTHEPYTFGQGKLEIK .
Response: 393000
